Entries and their Signal (FLU) values follow.
Molecular target: T1, human DR3 (TNFRSF25) expressed on cells (human, UniProt Q93038 25-417)
T1 sequence: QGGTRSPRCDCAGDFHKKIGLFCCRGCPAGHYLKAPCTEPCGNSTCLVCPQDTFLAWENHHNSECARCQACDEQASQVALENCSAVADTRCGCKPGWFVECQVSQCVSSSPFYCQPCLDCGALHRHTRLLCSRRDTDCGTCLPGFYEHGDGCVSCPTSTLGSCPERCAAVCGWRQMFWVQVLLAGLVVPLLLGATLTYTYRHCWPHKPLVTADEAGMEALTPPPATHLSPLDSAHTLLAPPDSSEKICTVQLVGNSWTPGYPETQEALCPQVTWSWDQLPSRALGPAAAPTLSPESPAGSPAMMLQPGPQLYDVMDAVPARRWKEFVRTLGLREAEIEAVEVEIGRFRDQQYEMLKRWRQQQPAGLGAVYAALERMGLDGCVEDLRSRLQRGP
Assay: cell-based or functional assay
Give a bare numeral; the unit FLU is implied.

Consider the reported Signal (FLU) for these binders:
# BINDER, MEASUREMENT LABEL, UNIT INFO, QUANTITATIVE RESULT
measured = [
    ("VHg9/VLg1 (antibody, human IgG1, V domains shown) VH: EVQLVESGGGLVKPGGSLRLSCAASGFTFSSYAMSWVRQAPGKGLEWVSTISDGDSYSYFPDSVKDRFTISRDNAKNSLYLQMNSLRAEDTAVYYCARDRIYGSVQYYAMDYWGQGTLVTVSS VL: DVVMTQSPDSLAVSLGERATINCRASESVEFSGTSLMQWYQQKPGQPPKLLIYAASNVESGVPDRFSGSGSGTDFTLTISSLQAEDVVVYYCQQSRKLPYTFGGGTKVEIK", "Signal (FLU)", "FLU", "2.23e+06"),
    ("VHg2/mVL (antibody, human IgG1, V domains shown) VH: QMQLVQSGGGLVKPGGSLRLSCAASGFTFSSYAMSWIRQAPGKGLEWVSTISDGDSYSYFPDSVKDRFTISRDNAKNSLYLQMNSLRAEDTAVYYCTRDRIYGSVQYYAMDYWGRGTLVTVSS VL: DIVLTQSPASLAVSLGQRATISCRASESVEFSGTSLMQWYQQRPGLPPKLLIYAASNVESGVPARFSGSGSGTDFSLNIHPVEEDDIAMYFCQQSRKLPYTFGGGTKLEIN", "Signal (FLU)", "FLU", "2.57e+06"),
]

// next entry
Endpoint output: Signal (FLU) of VHg3/VLg5 (antibody, human IgG1, V domains shown) VH: EVQLVQSGGGLVKPGGSLRLSCAASGFKFSSYAMSWVRQAPGKGLEWLSTISDGDSYSYFPDSVKDRFIISRDNAKNSLYLQMNSLRVEDTGVYYCARDRIYGSVQYYAMDYWGQGTLVTVSS VL: EIVLTQSPGTLSLSPGERGTLSCRASESVEFSGTSLMQWYQQKPGQAPRLLIYAASNVESGIPDRFSGSGSETDFTLTISRLEPEDLAVYYCQQSRKLPYTFGQGTRLEIK . Value?
2.43e+06

Values were extracted from patent WO2025083273A1.
